Ref: PubChem BioAssay AID2060606

Reported values of IC50 for individual entries
- System: 922993-354-T-J3-PDC complex spheroids, viability, % test/control;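 further: spheroids exposed to the agents for 7 days before readout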
- test.method.notes: Anticancer human tumor 922993-354-T-J3-PDC patient-derived endometrial carcinoma cell line growth inhibition [CLK]
- conditions: curve of first compound; second compound 0.0316 µM
Quick reminder: number only, in µM, skip the unit.

Return reported IC50. Input compound: C=C(F)C(=O)N1CCN(c2nc(OCC3CCCN3C)nc3c2CCN(c2cccc4cccc(Cl)c24)C3)CC1CC#N (stereo not given) + CN1CCN(c2cc(C(=O)Nc3cc4cc(-c5cnn(C)c5)ccc4cn3)ccn2)CC1
5.38

// Input: COc1c(OCCCN2CCOCC2)ccc2c3n(c(=NC(=O)c4cnc(N)nc4)nc12)CCN3 + CNC(=O)c1ccc(Nc2nc(OC3CCCC3)c3c(-c4ccc5nc(C)oc5c4)c[nH]c3n2)c(OC)c1 . Output its IC50 only.
0.215

// moving on: another record for IC50
Respond only with IC50 recorded for CC1(C)CCC(CN2CCN(c3ccc(C(=O)NS(=O)(=O)c4ccc(NCC5CCOCC5)c([N+](=O)[O-])c4)c(Oc4cnc5[nH]ccc5c4)c3)CC2)=C(c2ccc(Cl)cc2)C1 + CN1CCN(c2cc(C(=O)Nc3cc4cc(-c5cnn(C)c5)ccc4cn3)ccn2)CC1
6.61
